biological target: recombinant rat L-type calcium channel (LTCC) subunits (α1c, α2δ, and β1) (Rattus norvegicus); assay: FLIPR calcium mobilization assay for L-type calcium channel; details: calcium mobilization in vitro assay; HEK293 cells expressing rat LTCC
Endpoint Label: pIC50
// pIC50 here means minus log10 of the molar concentration (mol/L)

The cases that follow already have their pIC50 on record.
[[record]]
molecule = "COc1ccc(NC(=O)CN2CCC(N(C(C)C)S(=O)(=O)c3cccc(C(F)(F)F)c3)CC2)cc1 [Compound 42h]"
reported_value = 5.27

[[record]]
molecule = "CCN(CC)C(=O)CN1CCC(N(C2CC2)S(=O)(=O)c2cccc(C(F)(F)F)c2)CC1 [Compound 38]"
reported_value = 5.49

[[record]]
molecule = "COc1ccccc1NCCC(=O)N1CCC(N(C(C)C)S(=O)(=O)c2cccc(C(F)(F)F)c2)CC1"
reported_value = 5.42

[[record]]
molecule = "Cc1ccccc1NCCC(=O)N1CCC(N(C(C)C)S(=O)(=O)c2cccc(C(F)(F)F)c2)CC1"
reported_value = 5.28


q: Name the recorded pIC50 of the molecule listed here: CC(C)N(C1CCN(C(=O)CCNc2ccccc2F)CC1)S(=O)(=O)c1cccc(C(F)(F)F)c1
a: 5.02

q: Name the recorded pIC50 of the molecule listed here: COc1ccc(CNCCC(=O)N2CCC(N(C(C)C)S(=O)(=O)c3cccc(C(F)(F)F)c3)CC2)cc1
a: 5.37

---

target: N-type calcium channel (NTCC) (Homo sapiens, UniProt Q00975); assay: FLIPR calcium mobilization assay for N-type calcium channel; conditions: calcium mobilization in vitro assay; differentiated IMR32 cells
Sequence (Q00975 whole entry): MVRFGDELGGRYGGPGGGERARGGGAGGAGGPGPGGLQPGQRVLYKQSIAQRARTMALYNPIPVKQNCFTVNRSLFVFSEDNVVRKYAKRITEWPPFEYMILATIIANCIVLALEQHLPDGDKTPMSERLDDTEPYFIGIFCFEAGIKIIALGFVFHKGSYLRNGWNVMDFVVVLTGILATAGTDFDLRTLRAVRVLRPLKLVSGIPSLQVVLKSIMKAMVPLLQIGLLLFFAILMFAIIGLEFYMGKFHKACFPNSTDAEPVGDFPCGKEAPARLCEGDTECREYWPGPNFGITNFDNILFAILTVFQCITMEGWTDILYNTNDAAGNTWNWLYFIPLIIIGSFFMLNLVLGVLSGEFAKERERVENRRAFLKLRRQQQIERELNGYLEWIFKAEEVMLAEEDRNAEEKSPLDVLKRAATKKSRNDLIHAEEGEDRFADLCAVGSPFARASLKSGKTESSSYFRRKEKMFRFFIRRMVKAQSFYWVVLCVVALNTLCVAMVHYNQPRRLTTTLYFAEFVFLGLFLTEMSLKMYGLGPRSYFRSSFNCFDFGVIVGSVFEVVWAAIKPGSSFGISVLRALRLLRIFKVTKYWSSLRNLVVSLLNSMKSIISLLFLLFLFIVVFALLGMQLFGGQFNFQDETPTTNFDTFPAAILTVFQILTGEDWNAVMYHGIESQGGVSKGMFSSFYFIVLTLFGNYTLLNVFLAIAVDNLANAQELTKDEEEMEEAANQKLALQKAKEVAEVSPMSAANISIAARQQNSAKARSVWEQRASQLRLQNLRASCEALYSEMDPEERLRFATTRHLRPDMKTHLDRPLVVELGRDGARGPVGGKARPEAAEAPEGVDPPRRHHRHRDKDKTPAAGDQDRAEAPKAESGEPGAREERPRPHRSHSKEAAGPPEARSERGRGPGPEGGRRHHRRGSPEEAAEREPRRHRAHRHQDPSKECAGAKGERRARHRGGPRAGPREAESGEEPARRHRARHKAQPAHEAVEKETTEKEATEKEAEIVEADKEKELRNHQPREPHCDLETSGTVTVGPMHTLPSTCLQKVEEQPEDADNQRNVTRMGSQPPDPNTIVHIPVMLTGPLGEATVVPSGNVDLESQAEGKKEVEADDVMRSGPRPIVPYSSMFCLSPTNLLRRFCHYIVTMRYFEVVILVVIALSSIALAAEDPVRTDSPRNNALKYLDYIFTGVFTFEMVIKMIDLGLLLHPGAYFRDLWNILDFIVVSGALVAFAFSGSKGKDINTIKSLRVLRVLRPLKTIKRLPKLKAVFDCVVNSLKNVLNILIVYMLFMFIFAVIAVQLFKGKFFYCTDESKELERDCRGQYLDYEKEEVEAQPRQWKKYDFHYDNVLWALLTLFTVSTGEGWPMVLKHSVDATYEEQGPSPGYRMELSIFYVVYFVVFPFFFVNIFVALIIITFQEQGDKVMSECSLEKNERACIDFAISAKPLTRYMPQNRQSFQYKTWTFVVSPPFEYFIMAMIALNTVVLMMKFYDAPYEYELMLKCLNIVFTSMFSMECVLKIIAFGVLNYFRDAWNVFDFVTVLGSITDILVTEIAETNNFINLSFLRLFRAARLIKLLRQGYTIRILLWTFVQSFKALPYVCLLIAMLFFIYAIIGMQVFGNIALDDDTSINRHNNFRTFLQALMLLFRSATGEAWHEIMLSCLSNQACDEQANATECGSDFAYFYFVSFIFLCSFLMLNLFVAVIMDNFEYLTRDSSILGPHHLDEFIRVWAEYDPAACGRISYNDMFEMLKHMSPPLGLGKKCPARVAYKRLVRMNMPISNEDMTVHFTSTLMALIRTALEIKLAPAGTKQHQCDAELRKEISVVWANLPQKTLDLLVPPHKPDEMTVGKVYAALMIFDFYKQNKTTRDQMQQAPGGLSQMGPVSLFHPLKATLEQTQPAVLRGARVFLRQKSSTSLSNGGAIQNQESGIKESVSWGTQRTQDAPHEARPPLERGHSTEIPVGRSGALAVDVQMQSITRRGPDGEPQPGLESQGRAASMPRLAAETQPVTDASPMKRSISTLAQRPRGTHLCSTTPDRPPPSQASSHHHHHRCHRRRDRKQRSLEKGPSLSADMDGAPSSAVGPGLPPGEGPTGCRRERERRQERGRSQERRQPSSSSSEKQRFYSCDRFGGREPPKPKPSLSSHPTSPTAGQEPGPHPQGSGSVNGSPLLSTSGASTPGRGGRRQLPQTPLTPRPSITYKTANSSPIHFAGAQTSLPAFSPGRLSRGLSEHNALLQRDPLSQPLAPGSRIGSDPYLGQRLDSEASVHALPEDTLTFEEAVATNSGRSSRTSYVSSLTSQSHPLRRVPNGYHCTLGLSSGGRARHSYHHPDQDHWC
Sequence (P54289 25-956 partner limits assumed): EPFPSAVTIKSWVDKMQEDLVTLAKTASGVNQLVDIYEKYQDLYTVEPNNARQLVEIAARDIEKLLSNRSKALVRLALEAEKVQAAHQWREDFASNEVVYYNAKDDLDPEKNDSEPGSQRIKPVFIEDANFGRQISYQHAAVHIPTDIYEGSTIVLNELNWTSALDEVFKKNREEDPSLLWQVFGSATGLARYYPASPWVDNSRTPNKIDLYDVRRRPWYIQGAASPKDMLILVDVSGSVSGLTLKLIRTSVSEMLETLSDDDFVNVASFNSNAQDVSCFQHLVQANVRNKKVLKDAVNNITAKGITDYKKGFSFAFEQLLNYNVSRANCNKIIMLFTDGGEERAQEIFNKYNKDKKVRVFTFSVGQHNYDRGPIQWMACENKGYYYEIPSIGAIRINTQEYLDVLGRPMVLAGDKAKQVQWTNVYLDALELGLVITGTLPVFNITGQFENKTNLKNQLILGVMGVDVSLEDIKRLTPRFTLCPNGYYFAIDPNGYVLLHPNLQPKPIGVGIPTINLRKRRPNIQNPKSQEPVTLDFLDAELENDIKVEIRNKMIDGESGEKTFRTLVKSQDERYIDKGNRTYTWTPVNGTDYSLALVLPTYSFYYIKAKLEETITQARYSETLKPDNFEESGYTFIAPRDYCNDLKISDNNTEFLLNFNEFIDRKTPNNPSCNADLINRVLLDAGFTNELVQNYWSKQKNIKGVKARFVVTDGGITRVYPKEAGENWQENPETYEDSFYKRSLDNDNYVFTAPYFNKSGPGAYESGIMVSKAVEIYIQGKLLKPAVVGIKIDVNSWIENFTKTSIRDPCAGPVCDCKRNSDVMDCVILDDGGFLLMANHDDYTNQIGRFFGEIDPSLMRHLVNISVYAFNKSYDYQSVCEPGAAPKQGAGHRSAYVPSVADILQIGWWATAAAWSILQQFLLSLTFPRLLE
Sequence (P54289 957-1103 partner limits assumed): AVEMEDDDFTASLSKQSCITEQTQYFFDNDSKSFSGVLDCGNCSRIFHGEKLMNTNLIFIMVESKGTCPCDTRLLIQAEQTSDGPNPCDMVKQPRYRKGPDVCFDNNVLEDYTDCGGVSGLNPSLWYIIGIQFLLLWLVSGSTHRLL
Sequence (P54284 whole entry partner): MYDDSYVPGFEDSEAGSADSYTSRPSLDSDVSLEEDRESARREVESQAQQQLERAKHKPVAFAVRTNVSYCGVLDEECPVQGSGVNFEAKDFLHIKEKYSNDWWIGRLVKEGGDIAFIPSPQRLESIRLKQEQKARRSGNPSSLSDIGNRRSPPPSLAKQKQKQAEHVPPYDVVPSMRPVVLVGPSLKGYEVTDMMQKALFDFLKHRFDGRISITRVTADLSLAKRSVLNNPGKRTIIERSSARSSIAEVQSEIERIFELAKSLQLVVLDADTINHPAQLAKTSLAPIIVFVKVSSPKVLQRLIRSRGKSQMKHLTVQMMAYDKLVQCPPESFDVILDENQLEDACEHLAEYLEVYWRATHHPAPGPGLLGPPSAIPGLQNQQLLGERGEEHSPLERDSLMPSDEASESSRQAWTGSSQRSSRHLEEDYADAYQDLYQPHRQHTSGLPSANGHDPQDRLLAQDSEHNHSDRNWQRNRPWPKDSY
pIC50: −log10 of the molar value.
Tick met if pIC50 is 6 or greater. Tick not met if pIC50 is less than 6.

// below: answered molecules
[[record]]
molecule = "CC(C)N(C1CCN(C(=O)C(C)(C)N)CC1)S(=O)(=O)c1cccc(C(F)(F)F)c1"
assigned_class = "not met"

[[record]]
molecule = "CC(C)CNC(=O)CN1CCC(N(C(C)C)S(=O)(=O)c2cccc(C(F)(F)F)c2)CC1"
assigned_class = "met"

[[record]]
molecule = "CC(C)N(C1CCN(C(=O)CNc2ccc(F)cc2)CC1)S(=O)(=O)c1cccc(C(F)(F)F)c1"
assigned_class = "not met"

[[record]]
molecule = "CC(C)N(C1CCN(CC(=O)Nc2ccc(C(F)(F)F)cn2)CC1)S(=O)(=O)c1cccc(C(F)(F)F)c1 [Compound 42m]"
assigned_class = "met"

[[record]]
molecule = "Cc1cc(C)cc(NC(=O)CN2CCC(N(C3CC3)S(=O)(=O)c3cccc(C(F)(F)F)c3)CC2)c1"
assigned_class = "met"


q: Check the entry O=C(CN1CCC(N(C2CC2)S(=O)(=O)c2cccc(C(F)(F)F)c2)CC1)Nc1ccccc1 : does pIC50 equal or exceed 6?
a: met

q: Check the entry O=C(CN1CCC(N(C2CC2)S(=O)(=O)c2cccc(C(F)(F)F)c2)CC1)Nc1cc(F)cc(C(F)(F)F)c1 : does pIC50 equal or exceed 6?
a: met

q: Check the entry CN(C1CCN(CC(=O)Nc2cc(C(F)(F)F)cc(C(F)(F)F)c2)CC1)S(=O)(=O)c1ccccc1 : does pIC50 equal or exceed 6?
a: not met

q: Check the entry CN(C1CCN(C(=O)Nc2cc(C(F)(F)F)cc(C(F)(F)F)c2)CC1)S(=O)(=O)c1ccccc1 : does pIC50 equal or exceed 6?
a: met

q: Check the entry C#CCC(N)C(=O)N1CCC(N(C(C)C)S(=O)(=O)c2cccc(C(F)(F)F)c2)CC1 (stereo not shown) : does pIC50 equal or exceed 6?
a: not met
